I'd appreciate it if you could supply TGI values for the items below.
system: UACC-257 melanoma; assay: NCI tumour cell line growth inhibition, 48 h

{"compound": "CC(=O)NNc1nc(C)c(C(=O)NNC(=O)C(=O)Nc2ccc(C)cc2[N+](=O)[O-])s1", "outcome measure": "TGI", "experimental result": "> 100 µM"}

I'm hoping you can list TGI for every compound here, please.
1. O=C(CNC(=O)c1cccc2ccccc12)Nc1ccccc1Oc1ccc(O)cc1
2. O=c1[nH]c(-c2ccncc2)nc2sc3c(c12)CCCCCC3
3. Nc1nc(N)c2nc(CNc3ccc(C(=O)NC(CCC(=O)O)C(=O)O)cc3)cnc2n1 (stereo not given)
4. N#CCC1CCN(c2nc(Nc3ccc(N4CCC(O)CC4)cc3)c3c(=O)[nH]ncc3n2)CC1
5. FC(F)(F)c1ccc(-c2cnc(-c3nn[nH]n3)nc2NC2CCCCCC2)cc1
6. CC(=O)OCC1OC(Sc2nc(-c3ccccc3)c(C#N)c(=O)n2C2OC(COC(C)=O)C(OC(C)=O)C(OC(C)=O)C2OC(C)=O)C(OC(C)=O)C(OC(C)=O)C1OC(C)=O (stereo not given)
7. Nc1nc(-c2ccccn2)c(-c2ccc3ncccc3n2)s1

Resp:
1. > 25 µM
2. > 100 µM
3. > 100 µM
4. > 100 µM
5. > 10 µM
6. > 100 µM
7. > 25 µM

I'm hoping you can list TGI for every compound here, please.
1. COC(=O)[C@@H](C)C[C@H](Cc1ccccc1)NC(=O)c1nc([C@@H](C[C@H](C(C)C)N(C)C(=O)[C@@H](NC(=O)[C@H]2CC(=O)CCN2C)C(C)C)OC(C)=O)sc1C(C)C
2. Cc1n[nH]c(C)c1-c1c(C)n[nH]c1C
3. CC12CCC(C(=Nc3ccc([N+](=O)[O-])cc3)C1=O)C2(C)C (stereo not given)
4. N/C(=N\O)c1cn(C2OC(CO)C(O)C2O)c2ncnc(N)c12 (stereo not given)

Resp:
1. > 16.7 µM
2. 5.68 µM
3. > 100 µM
4. 0.705 µM

I'm hoping you can list TGI for every compound here, please.
1. CN1CN(c2ccccc2)C2(CCN(CCCN(C)c3ccc(F)cc3)CC2)C1=O
2. O=C(Nc1cc(Cl)ccc1Cl)c1cc2ccccc2oc1=O
3. CN1CC[C@H](N(C)C(=O)N2CC(c3cc(F)ccc3F)=C[C@@]2(CO)c2ccccc2)[C@H](F)C1
4. COc1cc(/C=C(\C#N)C(=O)c2ccccc2)cc(OC)c1OC
5. CC(=O)O[C@H]1CC[C@@]2(C)C(=CC[C@@H]3[C@@H]2CC[C@]2(C)C(=O)/C(=C\c4ccccc4)C[C@@H]32)C1

Resp:
1: 33.6 µM; 2: > 100 µM; 3: 41.4 µM; 4: > 100 µM; 5: > 100 µM

====

tested on: CAKI-1 renal; experiment: NCI tumour cell line growth inhibition, 48 h
Lab note: compare TGI against 6 µM. Equal or greater, write Condition met. Smaller, write Condition not met.

These recorded examples may help you get a feel for the data.
{"compound": "CC1(C)N=C(N)N=C(N)N1c1cccc(CC(=O)Nc2ccccc2)c1", "assigned class": "Condition met"}
{"compound": "Cn1c2ccccc2n2c3ccccc3c3nnc(N)c-3c12", "assigned class": "Condition met"}
{"compound": "CC1(C)CCC(c2ccc(Cl)cc2)=C(CN2CCN(c3ccc(C(=O)NS(=O)(=O)c4ccc(N[C@H](CCN5CCOCC5)CSc5ccccc5)c(S(=O)(=O)C(F)(F)F)c4)cc3)CC2)C1", "assigned class": "Condition not met"}
{"compound": "COCc1nc(C#N)c(N)o1", "assigned class": "Condition met"}
{"compound": "COc1cc(F)c(F)c(F)c1C(=O)c1cnc(NC2CCN(S(C)(=O)=O)CC2)nc1N", "assigned class": "Condition met"}
{"compound": "CCN(CC)c1ccc(C=C2C(=O)NC(=S)NC2=O)cc1", "assigned class": "Condition not met"}

Req: Form field: TGI at least 6 µM? Entry: `FC(F)(F)c1ccc(-c2cnc(-c3nn[nH]n3)nc2NC2CCCCCC2)cc1`
Resp: Condition met

Req: Form field: TGI at least 6 µM? Entry: OC1(c2ccccc2)c2ccccc2N(c2ccccc2)c2ccc(Cl)cc21 (configuration not stated)
Resp: Condition not met

Req: Form field: TGI at least 6 µM? Entry: CC1SC(c2ccc(OCc3ccccc3)cc2)N(NC(=O)C(O)(c2ccccc2)c2ccccc2)C1=O (configuration not stated)
Resp: Condition met

Req: Form field: TGI at least 6 µM? Entry: C/C=C/C(C/C=C(\C)CO[Si](C)(C)C(C)(C)C)O[Si](C)(C)C(C)(C)C (configuration not stated)
Resp: Condition met

Req: Form field: TGI at least 6 µM? Entry: `CCO/C=N\C1=C(C#N)SC2=N/C(=C\c3ccco3)C(=O)N21`
Resp: Condition met

Req: Form field: TGI at least 6 µM? Entry: CCCCCCCC(=O)N1C2CC3CCC2(CS1(=O)=O)C3(C)C (configuration not stated)
Resp: Condition met

Req: Form field: TGI at least 6 µM? Entry: `Cc1nc2ccccc2c(=O)n1/N=C(\N=Nc1ccc(Cl)cc1)c1ccc(N(C)C)cc1`
Resp: Condition met

Req: Form field: TGI at least 6 µM? Entry: `CC(=O)NNc1nc(C)c(C(=O)NNC(=O)C(=O)Nc2ccc(C)cc2[N+](=O)[O-])s1`
Resp: Condition met

Req: Form field: TGI at least 6 µM? Entry: `CCOC(=O)c1sc(N)nc1N1CCCC1`
Resp: Condition met

Req: Form field: TGI at least 6 µM? Entry: CC(=O)Nc1ccc2c3c(cc(O)c2c1)N(C(=O)CCCCCCC(=O)Nc1ccc2c4c(cc(O)c2c1)N(C(=O)OC(C)(C)C)CC4CCl)CC3CCl (configuration not stated)
Resp: Condition met
